assay: Inhibition of yeast alpha-glucosidase (unknown origin) using para-nitrophenyl glucopyranoside as substrate preincubated for 10 mins before substrate addition measured after 30 mins by spectrophotometry; parameters: species or system Saccharomyces cerevisiae
pIC50: −log10 of the molar value.
assay endpoint: pIC50

1) O=C1Nc2cc(Cl)ccc2/C1=C\c1c(Cl)cccc1Cl: 4.28
2) COc1cccc(/C=C2/C(=O)Nc3cc(Cl)ccc32)c1: 3.86
3) O=C1Nc2cc(Cl)ccc2/C1=C\c1ccc(O)c(O)c1: 5.57
4) O=C1Nc2cc(Cl)ccc2/C1=C\c1c2ccccc2cc2ccccc12: 4.76
5) O=C1Nc2cc(Cl)ccc2/C1=C\c1ccco1: 3.76

A = COc1ccc(/C=C2/C(=O)Nc3cc(Cl)ccc32)cc1OC
B = O=C1Nc2cc(Cl)ccc2/C1=C\c1ccccc1Cl
Inquiry: Returns: the label, A or B , whose recorded pIC50 is the lower number. Kindly give the label for the entry you pick.
Reply text: A

P = CN(C)c1ccc(/C=C2/C(=O)Nc3cc(Cl)ccc32)cc1
Q = O=C1Nc2cc(Cl)ccc2/C1=C\c1ccccc1[N+](=O)[O-]
R = CCOc1cccc(/C=C2/C(=O)Nc3cc(Cl)ccc32)c1O
S = O=C1Nc2cc(Cl)ccc2/C1=C\c1ccccc1
Inquiry: Rank order required: pIC50, descending. Write the labels out in the order the request specifies.
Reply text: Q, R, P, S

1 = COc1ccc(O)c(/C=C2/C(=O)Nc3cc(Cl)ccc32)c1
2 = CC(C)c1ccc(/C=C2/C(=O)Nc3cc(Cl)ccc32)cc1
3 = CSc1ccc(/C=C2/C(=O)Nc3cc(Cl)ccc32)cc1
4 = COc1ccc(/C=C2/C(=O)Nc3cc(Cl)ccc32)c(OC)c1OC
5 = O=C1Nc2cc(Cl)ccc2/C1=C\c1ccc(O)cc1
Inquiry: Arrange by pIC50, high to low. Give your ranking as a list of the labels in the requested order.
Reply text: 2, 5, 3, 1, 4

====

experiment: Inhibition of yeast alpha-glucosidase (unknown origin) using para-nitrophenyl glucopyranoside as substrate preincubated for 10 mins before substrate addition measured after 30 mins by spectrophotometry; parameters: species or system Saccharomyces cerevisiae
assay endpoint: IC50 (µM)

1. Cc1ccc(/C=C2/C(=O)Nc3cc(Cl)ccc32)cc1: 115
2. O=Cc1ccc(/C=C2/C(=O)Nc3cc(Cl)ccc32)cc1: 110
3. COc1ccc(/C=C2/C(=O)Nc3cc(Cl)ccc32)cc1: 108
4. O=C1Nc2cc(Cl)ccc2/C1=C\c1cccc2ccccc12: 102
5. O=C1Nc2cc(Cl)ccc2/C1=C\c1cccc(O)c1: 15.2
6. O=C1Nc2cc(Cl)ccc2/C1=C\c1ccc([N+](=O)[O-])cc1: 84.4
7. COc1cccc(/C=C2/C(=O)Nc3cc(Cl)ccc32)c1O: 72.2

I = O=C1Nc2cc(Cl)ccc2/C1=C\c1ccc(Cl)cc1Cl
II = CCOc1ccc(/C=C2/C(=O)Nc3cc(Cl)ccc32)cc1
Inquiry: Between these two entries, I and II , state which has the higher IC50. Mark your answer with the label of the selected entry.
Reply text: II
(II: 99.7 µM, I: 55.6 µM)
